target: NLRP3 (Homo sapiens); assay: THP-1 cells pyroptosis assay (LPS + nigericin, resazurin readout); format: cell-based; set-up: Seed THP-1 cells (25,000 cells/well) containing 1.0 μg/ml LPS in 40 μl of RPMI medium; host or cells: THP-1 cells; settings: NLRP3 inhibitory activity, 1.0 μg/ml LPS, 5 μM nigericin
Structures can show the parent of a compound that is named as a salt.
ENDPOINT NAME: IC50

Consider the following illustrative entries.
| COMPOUND | IC50 |
| --- | --- |
| CN(C)C(c1cc(S(=O)(=O)NC(=O)Nc2c3c(cc4c2CCC4)CCC3)nn1C)C(F)(F)F (stereo not drawn) | < 40 nM |
| CC(C)c1cc(F)cc(C(C)C)c1NC(=O)NS(=O)(=O)c1cc(CN2CCCC2)n(C)n1 | 160 to 640 nM |

# lookup: NLRP3 (Homo sapiens) IC50, key = Cn1nc(S(=O)(=O)NC(=O)Nc2c3c(cc4c2CCC4)CCC3)cc1CN1CCC1 [Example 86, Sodium Salt]
160 to 640 nM

# return IC50 for "CCn1nc(S(=O)(=O)NC(=O)Nc2c(-c3cccc(OC)c3)ccc3c2CCC3)cc1CN(C)C" , test system: NLRP3 (Homo sapiens)
640 to 2560 nM

Identify measured IC50 obtained with NLRP3 (Homo sapiens) for "CC(C)c1cc(F)cc(C(C)C)c1NC(=O)NS(=O)(=O)c1cc(CN2CC(F)C2)n(C)n1" .
640 to 2560 nM

Write IC50 of "CCn1nc(S(=O)(=O)NC(=O)Nc2c(Br)ccc3c2CCC3)cc1CN(C)C" ; system used: NLRP3 (Homo sapiens)
640 to 2560 nM

Identify measured IC50 obtained with NLRP3 (Homo sapiens) for COc1cc(-c2ccc3c(c2NC(=O)NS(=O)(=O)c2cc(C(=O)N(C)C)n(C)n2)CCC3)ccn1 [Example 177, sodium Salt] .
< 40 nM

Please indicate recorded IC50 of CCC(c1cc(S(=O)(=O)NC(=O)Nc2c(-c3ccnc(OC)c3)ccc3c2CCC3)nn1C(C)C)N(C)C (stereo not drawn) measured with NLRP3 (Homo sapiens).
40 to 160 nM

###

The entries below come with measured Tmax values attached.
test: PK protocol, oral administration; format: in vivo, male Sprague Dawley rats; conditions: male, Sprague Dawley, rat, plasma, po, dose (mg/kg)
Counter-ions that a name gives are not always drawn.
Note: unit min is implicit; provide only the numeric part.

Name the recorded Tmax of the molecule listed here: "CN(C)Cc1cc(S(=O)(=O)NC(=O)Nc2c3c(cc4c2CCC4)CCC3)nn1C1CC1"
60

State its Tmax for this molecule: CC(c1cc(S(=O)(=O)NC(=O)Nc2c3c(cc4c2CCC4)CCC3)nn1C)N(C)C (single isomer, unassigned; enantiomer 1)
22.8

Fill in reported Tmax for this entry: CC(C)c1cc(Cl)cc(C(C)C)c1NC(=O)NS(=O)(=O)c1cc(CN(C)C)n(C)n1 [Example 93, Sodium Salt]
21.6

Please indicate Tmax recorded for "CN(C)Cc1cc(S(=O)(=O)NC(=O)Nc2c3c(cc4c2CCC4)CCC3)nn1C"
34.8

In one line, give reported Tmax of the entry "CNCc1cc(S(=O)(=O)NC(=O)Nc2c3c(cc4c2CCC4)CCC3)nn1C(C)C" .
78

Given CC(c1cc(S(=O)(=O)NC(=O)Nc2c3c(cc4c2CCC4)CCC3)nn1C)N1CCC1 (stereo not drawn) , respond with its Tmax.
30

###

assay: PK protocol, oral administration; assay type: in vivo, male Sprague Dawley rats; conditions: male, Sprague Dawley, rat, plasma, po, dose (mg/kg)
Counter-ions that a name gives are not always drawn.
In this section, each of the compounds is paired with its reported CL/F.
Write the answer as a number in mL/min/kg, unit excluded.

Field: example entries. Status: answers known.
| COMPOUND | CL/F, mL/min/kg |
| --- | --- |
| CN(C)Cc1cc(S(=O)(=O)NC(=O)Nc2c3c(cc4c2CCC4)CCC3)nn1C1CC1 [Example 7] | 2.4 |
| CC(c1cc(S(=O)(=O)NC(=O)Nc2c3c(cc4c2CCC4)CCC3)nn1C)N1CCC1 (stereo not drawn) [Example 76] | 12.3 |
| CC(C)c1cc(Cl)cc(C(C)C)c1NC(=O)NS(=O)(=O)c1cc(CN(C)C)n(C)n1 [Example 93, Sodium Salt] | 18 |
| CNCc1cc(S(=O)(=O)NC(=O)Nc2c3c(cc4c2CCC4)CCC3)nn1C(C)C [Example 50] | 1.8 |
| CN(C)Cc1cc(S(=O)(=O)NC(=O)Nc2c3c(cc4c2CCC4)CCC3)nn1C [Example 94] | 4.1 |

Return CL/F for the following compound: CC(c1cc(S(=O)(=O)NC(=O)Nc2c3c(cc4c2CCC4)CCC3)nn1C)N(C)C (single isomer, unassigned; enantiomer 1) [Example 69]
4.2

###

biological target: NLRP3 (Homo sapiens, UniProt Q96P20); test: THP-1 cells pyroptosis assay (LPS + nigericin, resazurin readout); format: cell-based; design: Seed THP-1 cells (25,000 cells/well) containing 1.0 μg/ml LPS in 40 μl of RPMI medium; host or cells: THP-1 cells; details: NLRP3 inhibitory activity, 1.0 μg/ml LPS, 5 μM nigericin
Sequence (Q96P20 whole entry): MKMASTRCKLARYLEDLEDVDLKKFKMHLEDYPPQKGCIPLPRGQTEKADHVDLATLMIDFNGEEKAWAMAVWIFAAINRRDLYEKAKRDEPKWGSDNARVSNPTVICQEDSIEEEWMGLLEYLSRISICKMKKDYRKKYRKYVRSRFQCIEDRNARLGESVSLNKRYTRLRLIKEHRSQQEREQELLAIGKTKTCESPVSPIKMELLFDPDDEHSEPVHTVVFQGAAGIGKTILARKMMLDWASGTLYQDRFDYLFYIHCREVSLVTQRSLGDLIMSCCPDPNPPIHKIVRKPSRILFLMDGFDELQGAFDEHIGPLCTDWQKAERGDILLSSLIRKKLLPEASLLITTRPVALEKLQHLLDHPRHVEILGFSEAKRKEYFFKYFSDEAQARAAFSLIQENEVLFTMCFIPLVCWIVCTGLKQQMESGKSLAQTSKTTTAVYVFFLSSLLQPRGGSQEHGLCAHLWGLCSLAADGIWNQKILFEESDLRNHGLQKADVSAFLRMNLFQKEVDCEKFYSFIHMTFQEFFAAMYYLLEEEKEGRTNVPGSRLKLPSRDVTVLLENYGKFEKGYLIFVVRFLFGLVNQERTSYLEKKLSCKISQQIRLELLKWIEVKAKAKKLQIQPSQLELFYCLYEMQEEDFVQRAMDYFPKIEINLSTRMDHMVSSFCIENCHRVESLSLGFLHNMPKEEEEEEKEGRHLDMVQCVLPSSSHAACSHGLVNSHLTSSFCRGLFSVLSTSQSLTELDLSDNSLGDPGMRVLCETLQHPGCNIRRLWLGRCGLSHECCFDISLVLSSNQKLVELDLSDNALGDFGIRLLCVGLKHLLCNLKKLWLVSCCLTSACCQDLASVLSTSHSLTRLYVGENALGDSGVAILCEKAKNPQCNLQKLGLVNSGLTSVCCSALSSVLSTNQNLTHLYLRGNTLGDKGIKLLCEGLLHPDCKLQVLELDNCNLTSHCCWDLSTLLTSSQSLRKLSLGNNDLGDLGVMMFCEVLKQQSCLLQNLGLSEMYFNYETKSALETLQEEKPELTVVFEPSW
Where a name gives a salt, the structure may show the parent alone.
ENDPOINT NAME: IC50

Below: 3 molecules and their reported IC50.
| MOLECULE | ASSAYED TARGET | EXPERIMENTAL VALUE |
| --- | --- | --- |
| CCC(c1cc(S(=O)(=O)NC(=O)Nc2c3c(cc4c2CCC4)CCC3)nn1C1CC1)N1CCC1 (stereo not shown) | NLRP3 (Homo sapiens, UniProt Q96P20) | < 40 nM |
| CN(C)C1CCCn2nc(S(=O)(=O)NC(=O)Nc3c4c(cc5c3CCC5)CCC4)cc21 (stereo not shown) | NLRP3 (Homo sapiens, UniProt Q96P20) | < 40 nM |
| CC(C)c1cc(F)cc(C(C)C)c1NC(=O)NS(=O)(=O)c1cc(CN2CCC2)n(C)n1 [Example 88, Sodium Salt] | NLRP3 (Homo sapiens, UniProt Q96P20) | 160 to 640 nM |

Moving on to the next molecule.
Entry CC(C)c1cc(F)cc(-c2cnn(C)c2)c1NC(=O)NS(=O)(=O)c1cc(C(=O)N(C)C)n(C)n1 [Example 128, Sodium Salt] needs its IC50 filled in; supply it.
640 to 2560 nM

###

Quick reference: AUC of the listed items.
assay: PK protocol, intravenous administration; format: in vivo, male Sprague Dawley rats; conditions: male, Sprague Dawley, rat, plasma, dose (mg/kg)
Counter-ions that a name gives are not always drawn.
API: value field is a number in ng·h/mL; no unit string.

| COMPOUND | ENDPOINT NAME | EXPERIMENTAL VALUE |
| --- | --- | --- |
| CC(c1cc(S(=O)(=O)NC(=O)Nc2c3c(cc4c2CCC4)CCC3)nn1C1CC1)N1CCC1 (centres unmarked) | AUC | 3460 |
| CCC(c1cc(S(=O)(=O)NC(=O)Nc2c3c(cc4c2CCC4)CCC3)nn1C)N(C)C (single isomer, unassigned; enantiomer 2) | AUC | 2780 |

Consider the compound CC(C)c1cc(Cl)cc(C(C)C)c1NC(=O)NS(=O)(=O)c1cc(CN(C)C)n(C)n1 [Example 93, Sodium Salt] and give its recorded AUC.
4230

Give AUC for CC(c1cc(S(=O)(=O)NC(=O)Nc2c3c(cc4c2CCC4)CCC3)nn1C)N(C)C (centres unmarked)
4440

Determine its reported AUC: CCC(c1cc(S(=O)(=O)NC(=O)Nc2c3c(cc4c2CCC4)CCC3)nn1C(C)C)N(C)C (centres unmarked)
4010

// Input: CCN(C)Cc1cc(S(=O)(=O)NC(=O)Nc2c(C(C)C)cc(F)cc2C(C)C)nn1C [Example 89, sodium Salt] . Output its AUC only.
1020

Give a short answer stating reported AUC for CC(C)c1cc(F)cc(C(C)C)c1NC(=O)NS(=O)(=O)c1cc(CN(C)C)n(C)n1 [Example 92, Sodium Salt] .
1280

Supply AUC value. Item: "CCN(C)Cc1cc(S(=O)(=O)NC(=O)Nc2c3c(cc4c2CCC4)CCC3)nn1C"
2490

###

biological target: NLRP3 (Homo sapiens); assay: Human whole blood IL1β release assay (LPS + nigericin, AlphaLisa IL-1β); assay type: cell-based; design: Human whole blood in Li-heparin tubes was obtained from healthy donors from a volunteer donor panel; from tissue; host or cells: human whole blood from healthy donors; conditions: NLRP3 inhibitory activity, 1 μg/ml LPS, 10 μM nigericin, IL-1β release, read-out: HWB IC50
pIC50: −log10 of the molar value. Where a name gives a salt, the structure may show the parent alone.
# reported pIC50; entries follow

Recorded results for 5 molecules are shown here.
| MOLECULE | pIC50 |
| --- | --- |
| CCn1nc(S(=O)(=O)NC(=O)Nc2c(-c3ccnc(OC)c3)cc(F)c3c2CCC3)cc1CN(C)C | > 6.40 |
| CC(c1cc(S(=O)(=O)NC(=O)Nc2c3c(cc4c2CCC4)CCC3)nn1C)N1CCC1 (single isomer, unassigned; enantiomer 2) [Example 27] | > 6.40 |
| CN(C)CCn1nc(S(=O)(=O)NC(=O)Nc2c3c(cc4c2CCC4)CCC3)cc1CN(C)C | > 6.40 |
| CCN(CC)Cc1cc(S(=O)(=O)NC(=O)Nc2c3c(cc4c2CCC4)CCC3)nn1C [Example 82, Sodium Salt] | 5.80 to 6.10 |
| CC(c1cc(S(=O)(=O)NC(=O)Nc2c3c(cc4c2CCC4)CCC3)nn1C)N(C)C (stereo not shown) [Example 77] | > 6.40 |

Report value only: pIC50, NLRP3 (Homo sapiens), "CC(C)n1nc(S(=O)(=O)NC(=O)Nc2c3c(cc4c2CCC4)CCC3)cc1CN1CCC1"
6.10 to 6.40

Would you please give the reported pIC50 of "Cc1cc(-c2cc(F)cc(C(C)C)c2NC(=O)NS(=O)(=O)c2cc(CN(C)C)n(C)n2)n(C)n1" with NLRP3 (Homo sapiens)?
6.10 to 6.40
